These records show IC50 for Matrix metalloproteinase-14 (Homo sapiens).
measured-parameter: IC50 (µM)

{"smiles-notation": "CC#CCOc1ccc(S(=O)(=O)CC2(C(=O)NO)CCN(C(=O)c3ccncc3)CC2)cc1", "tested-system": "Matrix metalloproteinase-14 (Homo sapiens)", "measured-parameter": "IC50", "units-symbol": "µM", "quantitative-result": 0.583}
{"smiles-notation": "CC#CCOc1ccc(S(=O)(=O)CC2(C(=O)NO)CCN(S(=O)(=O)c3c(C)noc3C)CC2)cc1", "tested-system": "Matrix metalloproteinase-14 (Homo sapiens)", "measured-parameter": "IC50", "units-symbol": "µM", "quantitative-result": 24}

----------
Listing of recorded pIC50 by entry.
molecular target: Disintegrin and metalloproteinase domain-containing protein 17 (Homo sapiens); test: Inhibition of TACE
Sequence (P78536 whole entry, the tested form may be a part): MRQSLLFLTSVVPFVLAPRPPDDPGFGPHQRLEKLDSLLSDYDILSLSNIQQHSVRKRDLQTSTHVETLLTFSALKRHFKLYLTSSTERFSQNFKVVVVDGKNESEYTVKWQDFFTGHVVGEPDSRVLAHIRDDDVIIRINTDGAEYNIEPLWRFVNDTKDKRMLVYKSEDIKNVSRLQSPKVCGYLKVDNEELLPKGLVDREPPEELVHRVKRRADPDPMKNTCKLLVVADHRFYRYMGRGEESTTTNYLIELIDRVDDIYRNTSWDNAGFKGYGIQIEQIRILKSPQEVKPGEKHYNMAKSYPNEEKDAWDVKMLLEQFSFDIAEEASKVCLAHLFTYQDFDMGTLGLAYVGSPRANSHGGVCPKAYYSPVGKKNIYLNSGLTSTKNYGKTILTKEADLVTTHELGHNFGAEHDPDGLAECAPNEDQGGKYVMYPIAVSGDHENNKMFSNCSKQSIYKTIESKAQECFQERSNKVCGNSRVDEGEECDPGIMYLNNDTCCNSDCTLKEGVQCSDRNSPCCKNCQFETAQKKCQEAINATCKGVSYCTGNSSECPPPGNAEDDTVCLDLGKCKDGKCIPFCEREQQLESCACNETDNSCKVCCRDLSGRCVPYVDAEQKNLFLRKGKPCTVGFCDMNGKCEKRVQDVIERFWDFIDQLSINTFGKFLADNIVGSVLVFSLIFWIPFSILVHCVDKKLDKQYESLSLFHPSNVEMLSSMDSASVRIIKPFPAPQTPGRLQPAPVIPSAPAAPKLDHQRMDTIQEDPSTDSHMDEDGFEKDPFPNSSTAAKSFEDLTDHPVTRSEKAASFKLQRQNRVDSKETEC
pIC50: −log10 of the molar value.

{"smiles-notation": "CC#CCOc1ccc(S(=O)(=O)CC2(C(=O)NO)CCN(S(=O)(=O)c3ccc(Cl)s3)CC2)cc1", "tested-system": "Disintegrin and metalloproteinase domain-containing protein 17 (Homo sapiens)", "pIC50": 8.15}
{"smiles-notation": "CC#CCOc1ccc(S(=O)(=O)CC2(C(=O)NO)CCN(S(=O)(=O)Cc3ccncc3)CC2)cc1", "tested-system": "Disintegrin and metalloproteinase domain-containing protein 17 (Homo sapiens)", "pIC50": 8.70}
{"smiles-notation": "CC#CCOc1ccc(S(=O)(=O)CC2(C(=O)NO)CCN(S(=O)(=O)N3CCN(C(C)=O)CC3)CC2)cc1", "tested-system": "Disintegrin and metalloproteinase domain-containing protein 17 (Homo sapiens)", "pIC50": 8.82}
{"smiles-notation": "CC#CCOc1ccc(S(=O)(=O)CC2(C(=O)NO)CCN(S(=O)(=O)N3CCC[C@H]3COC)CC2)cc1", "tested-system": "Disintegrin and metalloproteinase domain-containing protein 17 (Homo sapiens)", "pIC50": 8.82}
{"smiles-notation": "CC#CCOc1ccc(S(=O)(=O)CC2(C(=O)NO)CCN(C(=O)c3ccncc3)CC2)cc1", "tested-system": "Disintegrin and metalloproteinase domain-containing protein 17 (Homo sapiens)", "pIC50": 8.59}
{"smiles-notation": "CC#CCOc1ccc(S(=O)(=O)CC2(C(=O)NO)CCN(S(=O)(=O)N3CCCC3)CC2)cc1", "tested-system": "Disintegrin and metalloproteinase domain-containing protein 17 (Homo sapiens)", "pIC50": 9.00}
{"smiles-notation": "CC#CCOc1ccc(S(=O)(=O)CC2(C(=O)NO)CCN(S(=O)(=O)C3CCCC3)CC2)cc1", "tested-system": "Disintegrin and metalloproteinase domain-containing protein 17 (Homo sapiens)", "pIC50": 8.89}

----------
These records show IC50 for Collagenase 3 (Homo sapiens).

{"smiles-notation": "CC#CCOc1ccc(S(=O)(=O)CC2(C(=O)NO)CCN(S(=O)(=O)CCN3CCOCC3)CC2)cc1", "tested-system": "Collagenase 3 (Homo sapiens)", "IC50, nM": 43}
{"smiles-notation": "CC#CCOc1ccc(S(=O)(=O)CC2(C(=O)NO)CCN(c3nc4ccccc4n3C)CC2)cc1", "tested-system": "Collagenase 3 (Homo sapiens)", "IC50, nM": 166}
{"smiles-notation": "CC#CCOc1ccc(S(=O)(=O)CC2(C(=O)NO)CCN(S(=O)(=O)c3c(C)nn(C)c3C)CC2)cc1", "tested-system": "Collagenase 3 (Homo sapiens)", "IC50, nM": 385}
{"smiles-notation": "CC#CCOc1ccc(S(=O)(=O)CC2(C(=O)NO)CCN(S(=O)(=O)c3cn(C)c(C)n3)CC2)cc1", "tested-system": "Collagenase 3 (Homo sapiens)", "IC50, nM": 147}
{"smiles-notation": "CC#CCOc1ccc(S(=O)(=O)CC2(C(=O)NO)CCN(S(=O)(=O)c3cc(Cl)sc3Cl)CC2)cc1", "tested-system": "Collagenase 3 (Homo sapiens)", "IC50, nM": 23}
{"smiles-notation": "CC#CCOc1ccc(S(=O)(=O)CC2(C(=O)NO)CCN(S(=O)(=O)CC3CCCCC3)CC2)cc1", "tested-system": "Collagenase 3 (Homo sapiens)", "IC50, nM": 72}
{"smiles-notation": "CC#CCOc1ccc(S(=O)(=O)CC2(C(=O)NO)CCN(S(=O)(=O)N3CCCCC3)CC2)cc1", "tested-system": "Collagenase 3 (Homo sapiens)", "IC50, nM": 144}
{"smiles-notation": "CC#CCOc1ccc(S(=O)(=O)CC2(C(=O)NO)CCN(S(=O)(=O)N3CCN(C(C)=O)CC3)CC2)cc1", "tested-system": "Collagenase 3 (Homo sapiens)", "IC50, nM": 104}
